Cited source for all entries: paper PMC7941041

Please respond with reported dH for every item in the list.
- system name: T1, human Arc C-terminal domain (hArc-CT, residues 206–396, containing both lobes) (human, UniProt Q7LC44 206-396)
- T1 sequence: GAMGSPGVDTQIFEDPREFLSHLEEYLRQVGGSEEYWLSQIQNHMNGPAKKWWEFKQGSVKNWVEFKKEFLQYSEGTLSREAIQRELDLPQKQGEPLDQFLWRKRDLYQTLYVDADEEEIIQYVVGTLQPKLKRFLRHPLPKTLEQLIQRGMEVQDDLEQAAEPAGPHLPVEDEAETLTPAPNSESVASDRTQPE
- test details: ITC
One number for each entry, in kcal/mol.

INSERT INTO measurements (binder, obs_value) VALUES
  ('Ac-TSPKFRSRNESYMRAMST-NH2 [long GKAP repeat 4 peptide]', -6.8),
  ('Ac-RIPSYRYR-NH2 [stargazin peptide pStg(wt)]', -12),
  ('Ac-RIPSYRYRYQRRSRSSSRSTE-NH2 [long stargazin peptide pStg(long)]', -20.2);

Recorded result, Ac-TSPKFRSR-NH2 [GKAP repeat 4 peptide] , dH: -6.8
